Protocol Text: Cell Viability - LYMP2-024 (AID 988);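 also: cells exposed to compound for 24 hr at 37 °C; plate controls were DMSO only for no effect and 92 µM tetraoctylammonium bromide for full effect; nearly all actives have a fitted effect of over 60% in size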
Condition Notes: LYMP2-024 lymphoblastoid cell viability; series mostly up to 92.2 µM
Records with an inconclusive call do not appear. The source made the active and inactive calls. Calls follow the shape of the dose curve; as a rule, active = well fitted cell-killing curve with a large enough effect; inconclusive = small, poorly fitted or top-dose-only effect; inactive = flat fitted curve, though single readings scatter.
Outcomes you can answer with include only these: yes (1) for active, no (0) for inactive

[Q] Identify the outcome logged in this assay for the compound shown: "Cc1ccc(N=C=O)cc1N=C=O"
[A] no (0)

[Q] Identify the outcome logged in this assay for the compound shown: "O=C(O)CCl"
[A] no (0)

Kindly consider the entry below.
[Q] Identify the outcome logged in this assay for the compound shown: "C=CCCC#N"
[A] no (0)

* * *

Listed next: entries and their corresponding max response.
Tgt: Nuclear receptor subfamily 1 group I member 2 (Rattus norvegicus) (UniProt Q9R1A7)
Sequence (Q9R1A7 whole entry, looked up): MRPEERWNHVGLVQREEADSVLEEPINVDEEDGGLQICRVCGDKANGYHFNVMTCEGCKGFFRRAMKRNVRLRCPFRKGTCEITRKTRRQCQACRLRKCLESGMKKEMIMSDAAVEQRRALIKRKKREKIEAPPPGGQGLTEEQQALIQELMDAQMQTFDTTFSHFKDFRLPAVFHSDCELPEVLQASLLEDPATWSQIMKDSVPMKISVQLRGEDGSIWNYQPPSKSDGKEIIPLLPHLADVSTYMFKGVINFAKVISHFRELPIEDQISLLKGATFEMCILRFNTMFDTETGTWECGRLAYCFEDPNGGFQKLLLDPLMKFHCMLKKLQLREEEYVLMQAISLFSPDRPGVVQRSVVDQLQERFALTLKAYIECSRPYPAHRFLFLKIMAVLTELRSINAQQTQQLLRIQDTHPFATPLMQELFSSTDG
Protocol Text: qHTS assay for small molecule activators of the rat pregnane X receptor (rPXR) signaling pathway (AID 651751); also: 0% is about no effect
Condition Notes: rPXR reporter cells, luciferase (One-Glo), 24 h
Calls of active or inactive are those of the source. No rule for the calls is given here.

Field: example entries. Status: answers known.
[Q] Using Nuclear receptor subfamily 1 group I member 2 (Rattus norvegicus) (UniProt Q9R1A7) as the test system, report measured max response of "C=CCCl" .
[A] 0.623% (inactive)

[Q] Using Nuclear receptor subfamily 1 group I member 2 (Rattus norvegicus) (UniProt Q9R1A7) as the test system, report measured max response of CC(C)CC(C)N (stereo not drawn) .
[A] 0.275% (inactive)

[Q] Using Nuclear receptor subfamily 1 group I member 2 (Rattus norvegicus) (UniProt Q9R1A7) as the test system, report measured max response of "Clc1cc(Cl)c(Cl)c(Cl)c1" .
[A] -2.54% (inactive)

More entries:
[Q] Using Nuclear receptor subfamily 1 group I member 2 (Rattus norvegicus) (UniProt Q9R1A7) as the test system, report measured max response of "Cc1cc(-c2cc(C)c(N)c(C)c2)cc(C)c1N" .
[A] 14.1% (inactive)

[Q] Using Nuclear receptor subfamily 1 group I member 2 (Rattus norvegicus) (UniProt Q9R1A7) as the test system, report measured max response of "CCCC[N+](=O)[O-]" .
[A] 1.76% (inactive)
